Reference source for all entries: the supplement of paper PMC10567573

# Test method notes: protein stability index of a GFP-peptide fusion (GPS, HEK-293T) (PSI 1-6); higher = more stable;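 also: 24-mer peptide tiles fused after GFP, lentivirally expressed, FACS-sorted into six equal bins by GFP/DsRed ratio, decoded by Illumina sequencing, PSI is the read-weighted mean bin number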
# Recorded conditions: treatment: DMSO; c terminus: a fixed tail appended
Recorded endpoint: protein stability index
Reply with the value as a number alone.

Query block: So what does the record say about protein stability index for QFTSSSSIKGSSGLGGGSSRTSCR [KRT17] ?
Result block: 4.34

Query block: Same for ELRLYKQQVKKLEKALKKNVKLQE [CEP70]
Result block: 2.8

Query block: Same for AKNAAKDMNGKSLHGKAIKVEQAK [RBMY1A1]
Result block: 4.64

Query block: Same for RFVFADRERKKLVLENLEDSCVLT [TRIB3]
Result block: 3.18

Query block: Same for PAFDALGQLTGGYKPNPQIYVKLI [OAS1]
Result block: 2.34

Query block: Same for MEPPGPVRGPLQDSSWYEPSAELV [ZNF232]
Result block: 4.79

Query block: Same for QHLGEYENVLAALEGLNLSILKAM [NECAB1]
Result block: 2.25

Query block: Same for VKKDHVALQVPRGKEDSTLQLLRE [CBY2]
Result block: 4.26

Query block: Same for GASTFKEEPQTVPEARSRDATPPV [JUNB]
Result block: 5.34

Query block: Same for RDNSPFDGPGGNLAHAFQPGPGIG [MMP1]
Result block: 4.05

Query block: Same for GGPPAGPGGVYAGPEPPPVYTNLS [JUNB]
Result block: 4.15

Query block: Same for QATKASLKERFAFLFNSELLSDVR [BTBD1]
Result block: 2.55

Query block: Same for FNPEVAKYLKVPQDPLKFYKKIYF [IQUB]
Result block: 2.12

====

Kindly supply the reported protein stability index values for the records listed here.
# Test method notes: protein stability index of a GFP-peptide fusion (GPS, HEK-293T) (PSI 1-6); higher = more stable
# Recorded conditions: treatment: DMSO; c terminus: a fixed tail appended
Reply with the value as a number alone.

Query block: So what does the record say about protein stability index for LAGTFHYYSCERAKKAMGYQPLVT [NSDHL] ?
Result block: 2.2

Query block: Same for PSRGGNQLPRPPIVGGNKGRSGPL [WAS]
Result block: 4.6

Query block: Same for HTTLQCLAARVIVNHRIYYKGHIP [FEM1C]
Result block: 2.43

Query block: Same for RYEPDSKAFGVGVAYRSLGRFEQL [FSD1]
Result block: 2.48

Query block: Same for RNKIIAATIENAQPILQIDNARLA [KRT16]
Result block: 3.35

Query block: Same for RQDLEDRYAEHVAATQALPQDSGT [C22orf31]
Result block: 5.4

Query block: Same for QQESESEIDSVPKTQSELASESEH [MIA2]
Result block: 5.44

====

# Test method notes: protein stability index of a GFP-peptide fusion (GPS, HEK-293T) (PSI 1-6); higher = more stable
# Recorded conditions: treatment: DMSO; c terminus: a fixed tail appended
Everything with protein stability index lower than 4 is false; everything else, including exactly 4, is true.

Query block: Exam item: decide whether the reported protein stability index for SLRENDFIEIELDRQELTYQELLR [ANKRD40] is at least 4.
Result block: false

Query block: Same for QKLETDAMFRLEHGEADRSTLKKA [YJU2B]
Result block: true

Query block: Same for GRWVNENCRLQSPYFSPSASFHHK [CBY2]
Result block: false

Query block: Same for AAQAAAAAHAAQAHRERNEFPEDP [PI4K2A]
Result block: true

Query block: Same for SYVCRCKQGYILNSDQTTCRIQDL [MATN2]
Result block: false

Query block: Same for DCMAALGLAYDRKKVSKAAILARI [SCD]
Result block: false

Query block: Same for MEGKPMRRCTNIRPGETGMDVTSR [KLHL20]
Result block: true
